Reference source for all entries: ChEMBL document CHEMBL3739281

Test system: Enterovirus A71
assay.remarks: Antiviral activity against EV71
Assay type: functional, organism-based
test.conditions: Enterovirus A

| chemical.smiles | experimental.system | EC50, nM |
| --- | --- | --- |
| CCOC(=O)/C=C/[C@H](C[C@@H]1CCNC1=O)NC(=O)[C@@H](CC(=O)[C@@H](NC(=O)c1cc(C)on1)C(C)C)Cc1ccc(F)cc1 | Enterovirus A71 | 14 |

---

experimental.system: Peptidyl-prolyl cis-trans isomerase A (Homo sapiens)
Sequence (P62937 whole entry, looked up): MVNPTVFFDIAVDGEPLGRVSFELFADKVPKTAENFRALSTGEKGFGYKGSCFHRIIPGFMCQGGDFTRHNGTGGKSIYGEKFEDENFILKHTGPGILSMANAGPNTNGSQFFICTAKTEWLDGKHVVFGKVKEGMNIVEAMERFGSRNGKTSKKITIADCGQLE
assay.remarks: Inhibition of CypA (unknown origin) assessed as peptidyl-prolyl cis-trans isomerase activity at 10 uM using N-succinyl-Ala-Ala-Pro-Phe-p-nitroanilide as substrate by spectrophotometry
quantity.measured: inhibition (%)

| compound | quantity.measured | result.units | measured |
| --- | --- | --- | --- |
| O=C(NCc1c(O)cccc1O)NC1c2ccccc2-c2ccccc21 | inhibition | % | 9.25 |
| O=C(NC(=O)c1c(O)cccc1O)NC1c2ccccc2-c2cc3ccccc3cc21 (stereo not given) | inhibition | % | 39.1 |
| O=C(NC(=O)c1ccc(O)cc1O)NC1c2ccccc2-c2ccccc21 | inhibition | % | 21.4 |
| O=C(NC(=O)c1c(O)cccc1O)NC1c2ccccc2C2CCCCC21 (racemic) | inhibition | % | 27.6 |
| O=C(NC(=O)c1cc(F)ccc1O)NC1c2ccccc2-c2ccccc21 | inhibition | % | 27.7 |
| O=C(Cc1ccccc1F)NC(=O)NC1c2ccccc2-c2ccccc21 | inhibition | % | 16.9 |
| O=C(NC(=O)c1ccccc1F)NC1c2ccccc2C2CCCCC21 (racemic) | inhibition | % | 33.5 |
| Cc1ccc2c(c1)-c1ccccc1C2NC(=O)NC(=O)c1ccccc1F (stereo not given) | inhibition | % | 28.7 |
| O=C(NCc1ccccc1F)NC1c2ccccc2-c2ccccc21 | inhibition | % | 17.8 |
| O=C(NC(=O)c1c(O)cccc1O)NC1c2ccccc2-c2cc(C(F)(F)F)ccc21 (stereo not given) | inhibition | % | 20.3 |
